# experiment summary: Pharmacokinetic experiment in Beagle dog
# Type: in vivo
# assay setup: Beagle, dog, plasma, po; 4 g per individual; read-out: bioavailability by the oral administration
observable: bioavailability
The reply should consist of the numeric value with the unit placed after it.

Q: Item under review: N[C@@H](CO)C(=O)O [AST-001, L-serine] . Reported bioavailability?
Result: 106%

----------
# experiment summary: Pharmacokinetic experiment in healthy adult males
# Format: in vivo, human
# assay setup: male, human, blood, oral; 15 g twice a day for 7 days, N = 7, mean ± SD; read-out: t1/2 (converted)
observable: half-life
Reply with a number, then the unit it belongs to.

Q: // query half-life value for entry `N[C@@H](CO)C(=O)O`
Result: 11 h

----------
# experiment summary: Pharmacokinetic experiment in healthy adult males
# Assay type: in vivo, human
# assay setup: male, human, blood, po; 15 g orally twice a day for 7 days, steady state; read-out: average half-life (converted)
observable: half-life

Q: Data request, read-out half-life, for `N[C@@H](CO)C(=O)O`
Result: ~660 min

----------
# experiment summary: Pharmacokinetic experiment in Beagle dog
# Assay type: in vivo
# assay setup: oral 4 g, fasting
observable: AUCinf (µg·h/mL)
The reply should contain only the number, in µg·h/mL.

Q: Tell me the measured AUCinf of `N[C@@H](CO)C(=O)O` , please.
Result: 628

----------
# experiment summary: Pharmacokinetic experiment in healthy adult males
# Assay type: in vivo, human
# assay setup: male, human, blood, oral; single administration 30 g; read-out: average AUClast of L-serine without baseline correction
observable: AUC(0-t) (µg·h/mL)
Use µg·h/mL as the unit, but write only the number.

Q: Could you share which AUC(0-t) value was measured for `N[C@@H](CO)C(=O)O` ?
Result: 1530

----------
# experiment summary: Pharmacokinetic experiment in healthy adult males
# Type: in vivo, human
# assay setup: male, human, blood, oral; read-out: average half-life of extrinsically administered L-serine
# Procedure: 24 hours before the administration with AST-001 (main component: L-serine), blood was collected to measure the concentration of L-serine. 60 g of an AST-001 powder is a white homogeneous powder without having foreign substances, divided and repackaged into an HDPE bottle or a bottle made of the same material, and the composition of this drug is such that 1,000 mg of the main component L-serine is comprised per 1,000 mg dose. [table]
observable: half-life

Q: Report half-life for `N[C@@H](CO)C(=O)O` please.
Result: 6.5 to 14 h

----------
# experiment summary: Pharmacokinetic experiment in healthy adult males
# Type: in vivo, human
# assay setup: male, human, blood, oral; single administration 10 g; read-out: average AUClast of L-serine without baseline correction
observable: AUC(0-t) (µg·h/mL)
Supply the numeric figure in µg·h/mL, leaving out any unit text.

Q: So what's the measured AUC(0-t) for this one? `N[C@@H](CO)C(=O)O`
Result: 613

----------
# experiment summary: Pharmacokinetic experiment in healthy adult males
# Assay type: in vivo, human
# assay setup: male, human, blood, oral; 15 g twice a day for 7 days, N = 7, median value
observable: Tmax (h)
Numbers only; they are read as h.

Q: So what's the measured Tmax for this one? `N[C@@H](CO)C(=O)O`
Result: 1

----------
# experiment summary: Pharmacokinetic experiment in Beagle dog
# Assay type: in vivo
# assay setup: oral 8 g, fasting
observable: AUCinf (µg·h/mL)
The reply should contain only the number, in µg·h/mL.

Q: Bench note: what AUCinf did `N[C@@H](CO)C(=O)O` show?
Result: 1330

All values here come from patent US12478602B2.
